Listing: viability, T/C of selected compounds
# System: 388556-164-R-J1-PDC complex spheroid viability
# RUN DESCRIPTION: Anticancer human tumor 388556-164-R-J1-PDC patient-derived colon adenocarcinoma cell line growth inhibition [RAS]
# MEASUREMENT CONTEXT: second compound 0.3 µM; first compound 1 µM; stronger effect = lower value

COMPOUND | viability, T/C, %
Cc1nc(N2CCC3(CC2)COC(C)C3N)c(CO)nc1Sc1ccnc(N)c1Cl (stereo unspecified) + CCn1c(-c2cc(N3CCN(C)CC3)cnc2C(C)OC)c2c3cc(ccc31)-c1csc(n1)CC(NC(=O)C1CC1C)C(=O)N1CCCC(N1)C(=O)OCC(C)(C)C2 | 25.7
C[C@@H](NC(=O)c1ncnc(N)c1Cl)c1ncc(C(=O)Nc2cc(C(F)(F)F)c(Cl)cn2)s1 + CCn1c(-c2cccnc2C(C)OC)c2c3cc(ccc31)N1CCOC(CC(NC(=O)C(C(C)C)N(C)C(=O)C3(F)CCN(C(=O)C#CC(C)(C)N(C)C)CC3)C(=O)N3CCCC(N3)C(=O)OCC(C)(C)C2)C1 | 104
O=C(c1ccc(F)c(F)c1Nc1ccc(I)cc1F)N1CC(O)([C@@H]2CCCCN2)C1 + CCn1c(-c2cccnc2C(C)OC)c2c3cc(ccc31)N1CCOC(CC(NC(=O)C(C(C)C)N(C)C(=O)C3(F)CCN(C(=O)C#CC(C)(C)N(C)C)CC3)C(=O)N3CCCC(N3)C(=O)OCC(C)(C)C2)C1 | 20.2
CC(C)NCC(C(=O)N1CCN(c2ncnc3c2C(C)CC3O)CC1)c1ccc(Cl)cc1 (stereo unspecified) + CCn1c(-c2cccnc2C(C)OC)c2c3cc(ccc31)N1CCOC(CC(NC(=O)C(C(C)C)N(C)C(=O)C3(F)CCN(C(=O)C#CC(C)(C)N(C)C)CC3)C(=O)N3CCCC(N3)C(=O)OCC(C)(C)C2)C1 | 87.8
CC(Nc1ccc2c(c1)OCCn1cc(N3C(=O)OCC3C(F)F)nc1-2)C(N)=O (stereo unspecified) + CCn1c(-c2cc(N3CCN(C)CC3)cnc2C(C)OC)c2c3cc(ccc31)-c1csc(n1)CC(NC(=O)C1CC1C)C(=O)N1CCCC(N1)C(=O)OCC(C)(C)C2 | 21
Nc1ccn(C2OC(CO)C(O)C2(F)F)c(=O)n1 (stereo unspecified) + CCn1c(-c2cccnc2C(C)OC)c2c3cc(ccc31)N1CCOC(CC(NC(=O)C(C(C)C)N(C)C(=O)C3(F)CCN(C(=O)C#CC(C)(C)N(C)C)CC3)C(=O)N3CCCC(N3)C(=O)OCC(C)(C)C2)C1 | 59.5

* * *

# System: 388556-164-R-J1-PDC complex spheroid viability
# RUN DESCRIPTION: Anticancer human tumor 388556-164-R-J1-PDC cell line growth inhibition [RAS];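 also: spheroids exposed to compound for 7 days before readout; 100% = DMSO vehicle control luminescence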
# MEASUREMENT CONTEXT: compound 0.316 µM; stronger effect = lower value

MOLECULE | viability, T/C
Nc1ccn(C2OC(CO)C(O)C2(F)F)c(=O)n1 (stereo not given) | 74.7% [middle of 4 runs]
Cc1nc(N2CCC3(CC2)COC(C)C3N)c(CO)nc1Sc1ccnc(N)c1Cl (stereo not given) | 70.5% [middle of 4 runs]
C[C@@H](NC(=O)c1ncnc(N)c1Cl)c1ncc(C(=O)Nc2cc(C(F)(F)F)c(Cl)cn2)s1 | 121% [middle of 4 runs]
C=CC(=O)Nc1cc(Nc2nccc(-c3cn(C)c4ccccc34)n2)c(OC)cc1N(C)CCN(C)C | 78.6% [middle of 4 runs]
CC(=O)OC12COC1CC(O)C1(C)C(=O)C(O)C3=C(C)C(OC(=O)C(O)C(NC(=O)OC(C)(C)C)c4ccccc4)CC(O)(C(OC(=O)c4ccccc4)C21)C3(C)C (stereo not given) | 75% [middle of 4 runs]

* * *

# Test system: 388556-164-R-J1-PDC complex spheroid viability
# RUN DESCRIPTION: Anticancer human tumor 388556-164-R-J1-PDC cell line growth inhibition [RAS];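 also: spheroids exposed to compound for 7 days before readout; 100% = DMSO vehicle control luminescence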
# MEASUREMENT CONTEXT: second compound 0.00316 µM; first compound 0.00316 µM; stronger effect = lower value
PARAMETER MEASURED: viability, T/C (%)

MOLECULE | PARAMETER MEASURED | RESULT NUMBER
C=CC(=O)Nc1cc(Nc2nccc(-c3cn(C)c4ccccc34)n2)c(OC)cc1N(C)CCN(C)C + C=CC(=O)N1CCN(c2nc(OCC3CCCN3C)nc3c(F)c(-c4nc(N)cc(C)c4C(F)(F)F)c(Cl)cc23)C(C)C1 | viability, T/C | 110
Nc1ccn(C2OC(CO)C(O)C2(F)F)c(=O)n1 (stereo not given) + C=CC(=O)N1CCN(c2nc(OCC3CCCN3C)nc3c(F)c(-c4nc(N)cc(C)c4C(F)(F)F)c(Cl)cc23)C(C)C1 | viability, T/C | 106
CCN1CCN(Cc2ccc(Nc3ncc(F)c(-c4cc(F)c5nc(C)n(C(C)C)c5c4)n3)nc2)CC1 + C=CC(=O)N1CCN(c2nc(OCC3CCCN3C)nc3c(F)c(-c4nc(N)cc(C)c4C(F)(F)F)c(Cl)cc23)C(C)C1 | viability, T/C | 111
O=C(c1ccc(F)c(F)c1Nc1ccc(I)cc1F)N1CC(O)([C@@H]2CCCCN2)C1 + C=CC(=O)N1CCN(c2nc(OCC3CCCN3C)nc3c(F)c(-c4nc(N)cc(C)c4C(F)(F)F)c(Cl)cc23)C(C)C1 | viability, T/C | 97.8
CC(C)n1nc(-c2ccc3oc(N)nc3c2)c2c(N)ncnc21 + C=CC(=O)N1CCN(c2nc(OCC3CCCN3C)nc3c(F)c(-c4nc(N)cc(C)c4C(F)(F)F)c(Cl)cc23)C(C)C1 | viability, T/C | 91.9

* * *

# Test system: 388556-164-R-J1-PDC complex spheroid viability
# RUN DESCRIPTION: Anticancer human tumor 388556-164-R-J1-PDC cell line growth inhibition [RAS];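 also: spheroids exposed to compound for 7 days before readout; 100% = DMSO vehicle control luminescence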
# MEASUREMENT CONTEXT: second compound 10 µM; first compound 0.1 µM; stronger effect = lower value
Listing: viability, T/C of selected compounds

COMPOUND | RESULT UNIT | viability, T/C
C=CC(=O)Nc1cc(Nc2nccc(-c3cn(C)c4ccccc34)n2)c(OC)cc1N(C)CCN(C)C + C#Cc1c(F)ccc2cc(O)cc(-c3ncc4c(N5CC6CCC(C5)N6)nc(OCC56CCCN5CC(F)C6)nc4c3F)c12 | % | 56.2
C[C@@H](NC(=O)c1ncnc(N)c1Cl)c1ncc(C(=O)Nc2cc(C(F)(F)F)c(Cl)cn2)s1 + C#Cc1c(F)ccc2cc(O)cc(-c3ncc4c(N5CC6CCC(C5)N6)nc(OCC56CCCN5CC(F)C6)nc4c3F)c12 | % | 80.4
C=CC(=O)N1CCN(c2nc(OCC3CCCN3C)nc3c(F)c(-c4nc(N)cc(C)c4C(F)(F)F)c(Cl)cc23)C(C)C1 (stereo not drawn) + C#Cc1c(F)ccc2cc(O)cc(-c3ncc4c(N5CC6CCC(C5)N6)nc(OCC56CCCN5CC(F)C6)nc4c3F)c12 | % | 68.8

* * *

# Test system: 388556-164-R-J1-PDC complex spheroid viability
# RUN DESCRIPTION: Anticancer human tumor 388556-164-R-J1-PDC cell line growth inhibition [RAS];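 also: spheroids exposed to compound for 7 days before readout; 100% = DMSO vehicle control luminescence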
# MEASUREMENT CONTEXT: second compound 0.0316 µM; first compound 0.1 µM; stronger effect = lower value
Please assign 0.0 whenever viability, T/C is at or above 60%, and 1.0 whenever it is below.

COMPOUND | CLASS ASSIGNMENT
C=CC(=O)Nc1cc(Nc2nccc(-c3cn(C)c4ccccc34)n2)c(OC)cc1N(C)CCN(C)C + C=CC(=O)N1CCN(c2nc(OCC3CCCN3C)nc3c(F)c(-c4nc(N)cc(C)c4C(F)(F)F)c(Cl)cc23)C(C)C1 | 0.0
NC1c2ccccc2OC12CCN(c1cnc3c(N4CCCc5ncccc54)n[nH]c3n1)CC2 (centres undefined) + C=CC(=O)N1CCN(c2nc(OCC3CCCN3C)nc3c(F)c(-c4nc(N)cc(C)c4C(F)(F)F)c(Cl)cc23)C(C)C1 | 1.0
Cc1nc(N2CCC3(CC2)COC(C)C3N)c(CO)nc1Sc1ccnc(N)c1Cl (centres undefined) + C=CC(=O)N1CCN(c2nc(OCC3CCCN3C)nc3c(F)c(-c4nc(N)cc(C)c4C(F)(F)F)c(Cl)cc23)C(C)C1 | 0.0
CC(C)n1nc(-c2ccc3oc(N)nc3c2)c2c(N)ncnc21 + C=CC(=O)N1CCN(c2nc(OCC3CCCN3C)nc3c(F)c(-c4nc(N)cc(C)c4C(F)(F)F)c(Cl)cc23)C(C)C1 | 1.0
C[C@@H](NC(=O)c1ncnc(N)c1Cl)c1ncc(C(=O)Nc2cc(C(F)(F)F)c(Cl)cn2)s1 + C=CC(=O)N1CCN(c2nc(OCC3CCCN3C)nc3c(F)c(-c4nc(N)cc(C)c4C(F)(F)F)c(Cl)cc23)C(C)C1 | 0.0
CC(=O)OC12COC1CC(O)C1(C)C(=O)C(O)C3=C(C)C(OC(=O)C(O)C(NC(=O)OC(C)(C)C)c4ccccc4)CC(O)(C(OC(=O)c4ccccc4)C21)C3(C)C (centres undefined) + C#Cc1c(F)ccc2cc(O)cc(-c3ncc4c(N5CC6CCC(C5)N6)nc(OCC56CCCN5CC(F)C6)nc4c3F)c12 | 0.0
